Origin of values: PubChem BioAssay (NCI)

# Test system: OVCAR-4 ovarian
# method notes: NCI tumour cell line growth inhibition, 48 h; in the data active means GI50 below about 0.43 µM; inactive means the rest
Your answer must be one of the following: yes (1) (active), no (0) (inactive)

Q: What is the recorded call for this compound in the test? "CC(=O)[O][Hg][c]1c(C)c(C)cc(C)c1C"
Result: no (0)

Q: Fill in: this test's call for "COC(=O)[C@H]1CCCN1C(=O)[C@H]1CCCN1C(=O)[C@H](Cc1c[nH]c2ccccc12)NC(=S)Nc1cc(C(F)(F)F)cc(C(F)(F)F)c1" is ___
Result: no (0)

Q: Can you look up the reported call for "C#CCOc1ccc2ncnc(Nc3ccc(NC(=O)C=C)cc3)c2c1" for me?
Result: no (0)

Q: Kindly provide the recorded test outcome for the following compound: "COc1cc(-c2nn(-c3cccc(NC(=O)c4ccc(Cl)c(C(F)(F)F)c4)c3)cc2-c2ccncc2)ccc1Cl"
Result: no (0)

Q: Please share the test call associated with "COc1nnc2ccc(N3CCC(c4ccc(OCCN5CCN(C)C(=O)[C@H]5C)cc4)CC3)nn12" .
Result: yes (1)

Further cases:
Q: // outcome(item) with item = O=[N+]([O-])c1cccc(C2CC(c3ccccc3)=Nc3ccccc3S2)c1 (centres undefined)
Result: no (0)

Q: Answer briefly: the call reported for "CN1CCN(CCCOc2cccc3nc(Nc4ccc(Cl)c(C(F)(F)F)c4)ccc23)CC1" in this assay.
Result: no (0)

Q: Look up the recorded call for "O=C(COc1cccc(/C=C2\CSc3ccccc3C2=O)c1)Nc1nccs1" in this test.
Result: no (0)

Q: For "O=C(CC(Cl)=C(Cl)Cl)c1cccc(Cl)c1Cl" , what call appears in the results of this test?
Result: no (0)
